In this section we review reported inhibition at 1 µM values for a set of compounds.
Target: D-2 dopamine receptor (Rattus norvegicus, UniProt P61169)
Construct: from tissue; host or cells: limbic brain tissue
Sequence (P61169 whole entry): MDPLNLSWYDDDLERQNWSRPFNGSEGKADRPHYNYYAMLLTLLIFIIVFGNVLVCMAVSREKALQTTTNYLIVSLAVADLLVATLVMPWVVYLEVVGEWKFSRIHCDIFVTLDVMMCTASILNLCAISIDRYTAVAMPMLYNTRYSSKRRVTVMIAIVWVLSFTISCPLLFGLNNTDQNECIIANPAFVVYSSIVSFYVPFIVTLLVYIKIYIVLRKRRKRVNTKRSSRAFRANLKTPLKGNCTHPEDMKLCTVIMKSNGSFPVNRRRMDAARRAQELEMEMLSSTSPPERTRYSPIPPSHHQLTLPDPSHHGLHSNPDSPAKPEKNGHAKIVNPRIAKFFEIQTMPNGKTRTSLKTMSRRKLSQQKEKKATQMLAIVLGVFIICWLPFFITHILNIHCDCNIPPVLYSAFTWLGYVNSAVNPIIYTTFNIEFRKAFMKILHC
Experiment: [3H]Spiroperidol binding inhibition, homogenized limbic brain tissue
Details: 1 μM
measured-attribute: inhibition at 1 µM (%)

compound="O=C1C2CC(C(=O)N1CCCCN1CCN(c3ncccn3)CC1)C1CCCC21 (stereo not shown)" test_result=54
compound="O=C1C2CC(C(=O)N1CCCCN1CCN(c3cnccn3)CC1)C1CCCC21 (stereo not shown)" test_result=23
compound=O=C1C2CC(C(=O)N1CCCCN1CCN(c3ncccn3)CC1)c1ccccc12 test_result=23
compound="O=C1C2CC(C(=O)N1CCCCN1CCN(c3ccc4ccccc4n3)CC1)C1C2C2C3CC4C2C4C31 (stereo not shown)" test_result=45
